Sourced from PubChem BioAssay AID485313

assay info: qHTS Assay for NPC1 Promoter Activators; also: nearly all actives have a fitted effect of over 60% in size;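 as to activation: reporter is driven by a mutant NPC1 promoter; % of control where 0% means no effect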
assay context: Huh7 NPC1 promoter luciferase reporter, 24 h; series mostly up to 9.22 µM
The whole screen tested about 320,000 compounds, of which about 7,600 (2.4%) were called active. About 3% were inconclusive and are not listed. Calls follow the shape of the dose curve; as a rule, active = well fitted activation curve with a large enough effect; inconclusive = small, poorly fitted or top-dose-only effect; inactive = no such curve, though single readings can be large or run the other way. This is one part of a sample in which actives are shown more often than they occur.
Please state which outcome applies, choosing from active, inactive

q: Per the records of this test, what outcome belongs to "CCc1cccc(NC(=O)COC(=O)c2cc(=O)c3ccccc3o2)c1" ?
a: inactive

q: Input CCCOC1CCCN(C(=O)c2cc(COc3cncc(Cl)c3)on2)C1 (stereo unspecified)
a: active

q: Cc1nonc1C1CCCN1C(=O)c1cc(COc2cccc(C(F)(F)F)c2)on1 (stereo unspecified) , same question.
a: inactive

q: Moving on to "O=C(CN1CCN(c2ccc(Cl)cc2)CC1)N1CCCC1"
a: inactive

q: Then this compound: "O=C(CSCc1ccc(Cl)cc1)N1CCCCC1"
a: active

q: Again, but for "CCN(CC(=O)Nc1c(F)cccc1F)C(=O)c1cnc(C)cn1"
a: inactive

====

assay info: qHTS Assay for NPC1 Promoter Activators; also: nearly all actives have a fitted effect of over 60% in size;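 as to activation: reporter is driven by a mutant NPC1 promoter; % of control where 0% means no effect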
assay context: Huh7 NPC1 promoter luciferase reporter, 24 h; series mostly up to 9.22 µM
In all, about 320,000 compounds went through this assay and about 7,600 (2.4%) were called active. About 3% were inconclusive and are not listed. Calls follow the shape of the dose curve; as a rule, active = well fitted activation curve with a large enough effect; inconclusive = small, poorly fitted or top-dose-only effect; inactive = no such curve, though single readings can be large or run the other way. This excerpt belongs to a sample that is enriched for actives.
Entry note: the call must match one of 1 = active, 0 = inactive

q: For this molecule, state the assay outcome: O=C(CN1CCN(C2CCS(=O)(=O)C2)CC1)N1N=C(c2ccc(Cl)cc2)CC1c1ccco1 (stereo not given)
a: 0

q: // same read-out, input: CC1CN/C(=C\C(=O)c2ccc(Br)cc2)C(=O)N1 (stereo not given)
a: 1

q: Do the same for "CCOCCc1nn2c(=O)cc(CSCC(=O)Nc3cccc(C)c3C)nc2s1" please
a: 0

q: Could you do the same for "CC1(C)Cc2ccccc2/C(=C/C(=O)c2ccccc2)N1" , please?
a: 0

q: Also need COc1cc2c(cc1OC)CN(C(C)C(=O)Nc1cccc(S(=O)(=O)N3CCOCC3)c1)CC2 (stereo not given) , thanks.
a: 0

====

assay info: qHTS Assay for NPC1 Promoter Activators; also: nearly all actives have a fitted effect of over 60% in size; also: potency is read from the fitted curve at half-maximal effect
assay context: Huh7 NPC1 promoter luciferase reporter, 24 h; series mostly up to 9.22 µM
Hit rate of the full screen: of about 320,000 compounds, about 7,600 (2.4%) were called active. Inconclusive results (about 3%) are left out. The sample holds actives, similar compounds and a random draw of the others, so the mix is not that of the screen.
reported property: Potency

Please review the following examples before continuing.
[
  {
    "structure as smiles": "COc1ccc(-c2sc3ccc(OC)cc3c2C#Cc2ccccn2)cc1",
    "Potency": "inactive"
  },
  {
    "structure as smiles": "c1csc(-c2nc(-c3ccncc3)no2)c1",
    "Potency": "3.16 µM (active)"
  },
  {
    "structure as smiles": "Cc1ccc(-c2nc(-c3ccncc3)no2)c(C)c1",
    "Potency": "3.16 µM (active)"
  },
  {
    "structure as smiles": "O=C(NCc1cccnc1)c1nc(-c2cccs2)no1",
    "Potency": "inactive"
  },
  {
    "structure as smiles": "Cc1ccc(-c2noc(CSc3nnc(-c4ccncc4)n3-c3ccc(F)cc3)n2)cc1",
    "Potency": "inactive"
  }
]

q: Any idea what its Potency is? The molecule is "c1ccc(CCc2nc(-c3ccncc3)no2)cc1"
a: inactive

====

assay info: qHTS Assay for NPC1 Promoter Activators; also: nearly all actives have a fitted effect of over 60% in size;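 as to activation: reporter is driven by a mutant NPC1 promoter; % of control where 0% means no effect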
assay context: Huh7 NPC1 promoter luciferase reporter, 24 h; series mostly up to 9.22 µM
Out of some 320,000 compounds screened, about 7,600 (2.4%) were called active. Not shown: some 3% with an inconclusive outcome. The call rests on the fitted dose curve; in most records, active means well fitted activation curve with a large enough effect; inconclusive means small, poorly fitted or top-dose-only effect; inactive means no such curve, though single readings can be large or run the other way. This excerpt belongs to a sample that is enriched for actives.
Form entry, call: pick from active, inactive

q: Hi team, can someone confirm the assay call for "O=C(Nc1ccc(Br)cn1)c1ccc([N+](=O)[O-])cc1Cl" ?
a: active

q: Same question for "O=C(COC(=O)c1ccccc1Br)Nc1nnc(-c2ccccc2)o1" please.
a: inactive

q: "Cc1ccc(C(=O)OCC(=O)Nc2ccc(Cl)cn2)cc1S(=O)(=O)N1CCOCC1" , same question.
a: inactive

q: And what about the compound "CC(=O)Nc1ccc(NC(=O)COC(=O)c2ccccc2C(=O)c2ccccc2)cc1" ?
a: inactive

q: Now consider Nc1ccn(C2CC(O)C(CO)O2)c(=O)n1 (stereo not given) and answer again.
a: inactive

q: What about this compound? "CC[C@@H]1Cc2cc(O)ccc2C2=C1c1ccc(O)cc1C[C@H]2CC"
a: inactive

q: Next entry: "CC(=O)Nc1ccc(NC(=O)COc2ccc(-c3ccccc3)cc2)cc1"
a: inactive

q: Note, next up: "CC(C)CNC(=O)C(=O)NCc1ccccc1"
a: inactive

q: Moving on to "CCC(=O)c1ccc(OCC(=O)OCC(=O)N2CCc3ccccc3C2)cc1"
a: inactive

q: Also "O=C(Nc1ccc2oc(-c3ccc4ccccc4c3)nc2c1)c1cccs1" , if possible.
a: active

q: Moving on to "CCc1ccccc1OCC(=O)Nc1ccc(C)c(S(=O)(=O)N2CCCCCC2)c1"
a: inactive

q: Entry to check: "CC(C)CNC(=O)C(=O)Nc1ccc(N(C)C)cc1"
a: active

q: What about "O=C(COC(=O)c1ccc(Oc2ccccc2)cc1)Nc1nnc(-c2ccccc2)o1" ?
a: inactive

q: Cool, now "C/C(=N\NC(=O)c1nc(C)cc(C)n1)c1ccccc1"
a: active

q: What do we get for "CC(=O)Nc1ccc(-c2csc(NC=C3C(=O)OC(C)(C)OC3=O)n2)cc1" ?
a: inactive

q: Okay, and "Nc1c(C(=O)NCc2ccccc2)sc2nc3c(cc12)C(=O)CCC3" ?
a: inactive

q: Now consider "S=C(c1ccc(-c2ccccc2)o1)N1CCCCC1" .
a: active

q: What do you get for CCOc1ccc(NC(=O)N(CCC(C)C)C(C)c2ccco2)cc1 (stereo not given) ?
a: inactive

q: Then what about the compound "O=C(CN1CCCSc2ccccc21)N1CCN(S(=O)(=O)c2ccccc2)CC1" ?
a: inactive

q: Try the compound "O=C(OCC(=O)N1CCOCC1)c1ccc2ccccc2c1"
a: inactive

q: Lookup "CCCCOc1ccc(-c2nnc(-c3ccco3)o2)cc1"
a: active

q: Check CSCCC(NC(=O)c1ccccc1)C(=O)N1CCN(Cc2ccc(Cl)cc2)CC1 (stereo not given) too.
a: inactive

q: Similarly, "C[C@H](NC(=O)c1ccccc1Cl)C(=O)OCC(=O)N1CCN(c2ccccc2)CC1" ?
a: inactive

q: Field entry: "Cc1ccc(OCC(=O)Nc2nnc(-c3ccco3)s2)cc1"
a: inactive

q: What about this compound? CCOc1ccc(OCC(=O)OC(C)C(=O)NC2CCCCC2C)cc1 (stereo not given)
a: inactive

q: # iterate: "COc1ccc(/C(C)=N/NC(=O)c2ccc3nc[nH]c3c2)cc1"
a: inactive

q: Then "O=C(N/N=C/c1ccc([N+](=O)[O-])cc1)c1c[nH]c2ccccc12" ?
a: inactive

q: Consider next the compound "Nc1ccc(-c2sc(N)nc2-c2ccccc2)cc1" in the same way.
a: inactive

q: Record: "COc1ccccc1C(=O)NCC(=O)NCCSc1ccc(Br)cc1"
a: inactive

q: And "CCN1C(=O)[C@@H]2[C@@H](c3ccc(-c4cccc(Cl)c4)cc3)N3CCC[C@@]3(C(=O)OC)[C@@H]2C1=O" ?
a: inactive

q: Another compound to look at: "O=C(Nc1ccc(NC(=O)c2cccs2)cc1)c1ccc2ccccc2c1"
a: inactive

q: // repeat for "COc1cc2ccccc2cc1C(=O)Nc1ccc(NC(=O)c2cccs2)cc1" and report
a: inactive

q: Cool, now "CC(C)CNC(=S)Nc1ccc(F)cc1"
a: inactive

q: Let us now turn to "O=C1Cc2cc(S(=O)(=O)Nc3cccc(F)c3)ccc2N1"
a: inactive

q: Also "COCCN(C(=O)CC1CCCCC1)c1c(N)n(CC(C)C)c(=O)[nH]c1=O" , if possible.
a: inactive

q: Let us now turn to "O=C1C=C(c2ccnc3cc(Cl)ccc23)C[C@@H](c2ccc3c(c2)OCO3)C1"
a: inactive

q: And then "Cc1ccsc1C(=O)N/N=C/c1ccc([N+](=O)[O-])cc1" , what is it?
a: active

q: What about this compound? CC(C(=O)N(C)CC(=O)Nc1ccccc1C(F)(F)F)N1C(=O)c2ccccc2C1=O (stereo not given)
a: inactive

q: // next record "CCOc1ccc(-c2nnc(-c3ccco3)o2)cc1"
a: active

q: Cool, now "CCS(=O)(=O)Nc1cccc(-c2cc(-c3ccccc3)c3cc(C)ccc3n2)c1"
a: inactive

q: Try the compound "O=C(COC(=O)Cc1ccc(Br)cc1)Nc1ccc(N2CCOCC2)cc1"
a: inactive

q: Try the compound "CC(=O)Nc1cccc(-c2cnc3ccccc3n2)c1"
a: active

q: Also "Cc1ccccc1-c1n[nH]c(=S)n1C" ?
a: inactive

q: Same thing, different compound: "CN(CC(=O)Nc1ccc(Cl)cc1)CC(=O)Nc1cccc2ccccc12"
a: inactive

q: Then what about the compound COC(=O)[C@]1(C)CCC[C@@]2(C)C3CC[C@]4(OC(C)=O)C[C@@]3(CCC21)CC4=NO (stereo not given in full) ?
a: inactive
